# Tested on: U-251
# Method: NCI tumour cell line growth inhibition, 48 h
Activity calls are given as the source filed them. No stated cut-off is given here; in the data, active = GI50 up to about 1.1 µM and inactive = higher.
Reply using exactly one outcome from TRUE for active, FALSE for inactive

Use the examples below as a reference point.
CC1CC(C#N)=C2NCCCCN2C1=O (stereo unspecified)    FALSE
COC12C=CC(CC1)C(C)(C)C2OS(C)(=O)=O (stereo unspecified)    FALSE
O=c1oc2ccccc2cc1-c1nc2ccc([N+](=O)[O-])cc2o1    FALSE
C[Si](C)(C)C1=C([Si](C)(C)C)C(Cl)(Cl)C1=O    FALSE

Dear all, I need the recorded test outcome for COc1cc([C@@H]2c3cc4c(cc3[C@@H](NC(=O)c3ccc([N+](=O)[O-])cc3)C3COC(=O)[C@@H]32)OCO4)cc(OC)c1O (stereo partly specified) , thank you.
TRUE

Dear all, I need the recorded test outcome for CCN(CC)c1ccc(C(=C2C=CC(=[N+](CC)CC)C=C2)c2ccccc2)cc1 , thank you.
TRUE

Dear all, I need the recorded test outcome for O=c1nc(NC(c2ccccc2)(c2ccccc2)c2ccccc2)ccn1CCNCCn1ccc(NC(c2ccccc2)(c2ccccc2)c2ccccc2)nc1=O , thank you.
FALSE

Dear all, I need the recorded test outcome for Cc1n[nH]c(=S)n(C)c1=S , thank you.
FALSE
